# assay_notes: Apparent permeability of the compound
# Type: physicochemical
# test_conditions: not told
endpoint: Papp (×10⁻⁶ cm/s)

Write down Papp measured for item Cn1nnc([C@H]2CCC[C@@H](c3nc(-c4ccc(C(=O)Nc5cc(C(F)(F)F)ccn5)cc4)c4c(N)nccn34)C2)n1
28

Write down Papp measured for item Nc1nccn2c([C@@H]3CCC[C@H](C(=O)O)C3)nc(-c3ccc(C(=O)Nc4cc(C(F)(F)F)ccn4)cc3)c12
7

Write down Papp measured for item CS(=O)(=O)NC(=O)[C@H]1CCC[C@@H](c2nc(-c3ccc(C(=O)Nc4cc(C(F)(F)F)ccn4)cc3)c3c(N)nccn23)C1
2

1. Cn1nnnc1[C@H]1CCC[C@@H](c2nc(-c3ccc(C(=O)Nc4cc(C(F)(F)F)ccn4)cc3)c3c(N)nccn23)C1
2. Nc1nccn2c([C@@H]3CCC[C@H](c4nn[nH]n4)C3)nc(-c3ccc(C(=O)Nc4cc(C(F)(F)F)ccn4)cc3)c12
In terms of reported Papp, does 1 or 2 have the smaller number? Mark your answer with the label of the selected entry.
2
(2: 3 ×10⁻⁶ cm/s, 1: 26 ×10⁻⁶ cm/s)

----------
# assay_notes: Half life in iv dosed dog
# Assay type: ADME, organism-based, Canis lupus familiaris
# test_conditions: in vivo
endpoint: half-life (h)
Report the figure in h without appending any unit label.

Write down half-life measured for item C[C@]1(C(=O)O)CC[C@@](C)(c2nc(-c3ccc(C(=O)Nc4cc(C(F)(F)F)ccn4)cc3)c3c(N)nccn32)CC1
5.8

----------
# assay_notes: Clearance in iv dosed rat
# Format: ADME, organism-based
# test_conditions: in vivo
endpoint: clearance (mL/min/kg)

a. C[C@]1(C(=O)O)CCC[C@@](C)(c2nc(-c3ccc(C(=O)Nc4cc(C(F)(F)F)ccn4)cc3)c3c(N)nccn23)C1
b. C[C@]1(C(=O)O)CC[C@@](C)(c2nc(-c3ccc(C(=O)Nc4cc(C(F)(F)F)ccn4)cc3)c3c(N)nccn32)CC1
Choose between a and b : whose measured clearance value is numerically larger? Mark your answer with the label of the selected entry.
b
(b: 13 mL/min/kg, a: 9 mL/min/kg)

----------
# assay_notes: Half life in rat
# Format: ADME
# test_conditions: in vivo
endpoint: half-life (h)

I. CCOc1cc(C(=O)Nc2cc(C(F)(F)F)ccn2)ccc1-c1nc(C23CCC(C(=O)O)(CC2)CC3)n2ccnc(N)c12
II. Nc1nccn2c([C@@H]3CCC[C@H](C(=O)O)C3)nc(-c3ccc(C(=O)Nc4cc(C(F)(F)F)ccn4)cc3)c12
In terms of reported half-life, does I or II have the smaller number? Mark your answer with the label of the selected entry.
I
(I: 0.8 h, II: 1.2 h)

----------
Voltage-gated inwardly rectifying potassium channel KCNH2 (Homo sapiens, UniProt Q12809) measurements of IC50, listed per entry.
Sequence (Q12809 whole entry): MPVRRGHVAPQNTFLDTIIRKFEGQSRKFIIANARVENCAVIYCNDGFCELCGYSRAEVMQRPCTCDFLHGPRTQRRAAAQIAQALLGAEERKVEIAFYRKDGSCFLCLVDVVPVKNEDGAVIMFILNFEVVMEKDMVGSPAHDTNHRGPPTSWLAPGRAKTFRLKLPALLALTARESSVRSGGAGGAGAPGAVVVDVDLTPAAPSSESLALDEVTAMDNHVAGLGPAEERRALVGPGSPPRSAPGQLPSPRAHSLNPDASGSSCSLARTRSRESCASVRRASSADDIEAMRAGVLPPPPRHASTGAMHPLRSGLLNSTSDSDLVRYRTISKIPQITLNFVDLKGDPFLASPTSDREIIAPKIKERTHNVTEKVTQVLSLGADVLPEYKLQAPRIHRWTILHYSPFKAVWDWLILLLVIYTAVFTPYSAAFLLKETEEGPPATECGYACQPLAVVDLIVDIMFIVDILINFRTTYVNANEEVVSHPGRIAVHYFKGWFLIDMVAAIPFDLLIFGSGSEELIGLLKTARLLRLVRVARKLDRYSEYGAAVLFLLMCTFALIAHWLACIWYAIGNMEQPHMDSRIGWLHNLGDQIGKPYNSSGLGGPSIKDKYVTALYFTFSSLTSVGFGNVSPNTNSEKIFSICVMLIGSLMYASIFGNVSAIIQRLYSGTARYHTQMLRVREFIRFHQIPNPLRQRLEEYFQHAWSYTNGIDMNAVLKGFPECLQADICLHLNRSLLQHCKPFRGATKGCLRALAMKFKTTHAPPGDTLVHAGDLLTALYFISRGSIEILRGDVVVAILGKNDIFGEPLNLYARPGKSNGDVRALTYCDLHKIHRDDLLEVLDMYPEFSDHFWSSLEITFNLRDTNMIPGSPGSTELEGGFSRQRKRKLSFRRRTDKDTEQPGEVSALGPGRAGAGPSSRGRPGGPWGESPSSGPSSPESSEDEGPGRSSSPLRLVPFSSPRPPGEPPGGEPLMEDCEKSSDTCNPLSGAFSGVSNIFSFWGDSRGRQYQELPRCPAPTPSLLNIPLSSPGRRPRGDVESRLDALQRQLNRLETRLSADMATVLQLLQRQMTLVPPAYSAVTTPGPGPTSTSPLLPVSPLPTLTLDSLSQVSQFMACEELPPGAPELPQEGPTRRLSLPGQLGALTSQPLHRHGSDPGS

Recorded IC50, per entry:
Write down IC50 measured for item CC(C)[C@@]1(C(=O)O)CC[C@@](C)(c2nc(-c3ccc(C(=O)Nc4cc(C(F)(F)F)ccn4)cc3)c3c(N)nccn23)C1
> 60 µM

Write down IC50 measured for item C[C@]1(C(=O)O)CC[C@@](C)(c2nc(-c3ccc(C(=O)Nc4cc(C(F)(F)F)ccn4)cc3)c3c(N)nccn32)CC1
> 60 µM

Continue with the molecule presented below.
Write down IC50 measured for item Nc1nccn2c([C@@H]3CCC[C@H](C(=O)O)C3)nc(-c3ccc(C(=O)Nc4cc(C(F)(F)F)ccn4)cc3)c12
> 60 µM

----------
# Tested on: HeLa
# assay_notes: Inhibition of [3H]-adenosine uptake in human HeLa cells preincubated for 30 mins followed by [3H]-adenosine addition measured after 60 mins by PMT-based radiometric detection method
# Assay type: cell-based
# test_conditions: 1 h
endpoint: Inhibitory concentration (nM)

Write down Inhibitory concentration measured for item C[C@]1(C(=O)O)CC[C@@](C)(c2nc(-c3ccc(C(=O)Nc4cc(C(F)(F)F)ccn4)cc3)c3c(N)nccn32)CC1
1452

Write down Inhibitory concentration measured for item Cn1nnc([C@H]2CCC[C@@H](c3nc(-c4ccc(C(=O)Nc5cc(C(F)(F)F)ccn5)cc4)c4c(N)nccn34)C2)n1
150

Write down Inhibitory concentration measured for item NC(=O)[C@H]1CCC[C@@H](c2nc(-c3ccc(C(=O)Nc4cc(C(F)(F)F)ccn4)cc3)c3c(N)nccn23)C1
45

Write down Inhibitory concentration measured for item C[C@]1(C(=O)O)CC[C@@H](c2nc(-c3ccc(C(=O)Nc4cc(C(F)(F)F)ccn4)cc3)c3c(N)nccn23)C1
5396

Write down Inhibitory concentration measured for item C[C@H]1CC[C@@H](c2nc(-c3ccc(C(=O)Nc4cc(C(F)(F)F)ccn4)cc3F)c3c(N)nccn23)CN1C(=O)C1CC1
110

Write down Inhibitory concentration measured for item Nc1nccn2c1c(-c1ccc(C(=O)Nc3cc(C(F)(F)F)ccn3)cc1)nc2[C@]12CC[C@](C(=O)O)(CC1)C2
459

A. Nc1nccn2c([C@@H]3CCC[C@H](c4n[nH]c(=O)o4)C3)nc(-c3ccc(C(=O)Nc4cc(C(F)(F)F)ccn4)cc3)c12
B. Nc1nccn2c([C@@H]3CCC[C@H](c4nnc[nH]4)C3)nc(-c3ccc(C(=O)Nc4cc(C(F)(F)F)ccn4)cc3)c12
Choose between A and B : whose measured Inhibitory concentration value is numerically larger? Mark your answer with the label of the selected entry.
B
(B: 168 nM, A: 44 nM)

----------
# Test system: HeLa
# assay_notes: Inhibition of [3H]-adenosine uptake in human HeLa cells preincubated for 30 mins followed by [3H]-adenosine addition measured after 60 mins by PMT-based radiometric detection method
# Format: cell-based
# test_conditions: 1 h
endpoint: Inhibitory concentration (µM)

Write down Inhibitory concentration measured for item CS(=O)(=O)NC(=O)[C@H]1CCC[C@@H](c2nc(-c3ccc(C(=O)Nc4cc(C(F)(F)F)ccn4)cc3)c3c(N)nccn23)C1
5.6

1. C[C@]1(C(=O)O)CCC[C@@](C)(c2nc(-c3ccc(C(=O)Nc4cc(C(F)(F)F)ccn4)cc3)c3c(N)nccn23)C1
2. Nc1nccn2c(C34CCC(C(=O)O)(CC3)CC4)nc(-c3ccc(C(=O)Nc4cc(C(F)(F)F)ccn4)cc3)c12
In terms of reported Inhibitory concentration, does 1 or 2 have the smaller number? Mark your answer with the label of the selected entry.
2
(2: 0.308 µM, 1: 6.073 µM)

----------
# System: HeLa
# assay_notes: Inhibition of [3H]-adenosine uptake in human HeLa cells preincubated for 30 mins followed by [3H]-adenosine addition measured after 60 mins by PMT-based radiometric detection method
# Format: cell-based
# test_conditions: 1 h
# key: entry, value: Inhibitory concentration

Recorded Inhibitory concentration, per entry:
Write down Inhibitory concentration measured for item Nc1nccn2c1c(-c1ccc(C(=O)Nc3cc(C(F)(F)F)ccn3)cc1)nc2[C@H]1CC[C@@H](C(=O)O)CC1
> 10 µM

Write down Inhibitory concentration measured for item Nc1nccn2c1c(-c1ccc(C(=O)Nc3cc(C(F)(F)F)ccn3)cc1)nc2[C@H]1CC[C@H](C(=O)O)CC1
> 10 µM

Continue with the compound presented below.
Write down Inhibitory concentration measured for item Nc1nccn2c([C@@H]3CCC[C@H](c4nn[nH]n4)C3)nc(-c3ccc(C(=O)Nc4cc(C(F)(F)F)ccn4)cc3)c12
> 10 µM

Origin of measurements: ChEMBL document CHEMBL3997842
